Experimental readout: melting point

Some solved cases for reference:
Molecule	melting point
Cc1cccc2nnc(-c3ccccc3)cc12	101 °C
COc1ccc(CN(C)CCCc2ccc(NC(=O)c3cccc4c(=O)c5cccc(F)c5[nH]c34)c(C)c2)cc1OC	132 °C
CC1=Cc2ccncc2C(C)(NS(=O)(=O)c2ccc(C)cc2)c2ccccc21 (centres undefined)	174 to 177 °C
CC(c1ccc2c(c1)Sc1ccccc1CC2)N(O)C(N)=O (centres undefined)	166 to 168 °C
Cc1ccc(-c2ccccc2C(=O)O)cc1C(=O)NCC12CC3CC(CC(C3)C1)C2	85 to 92 °C
CC(=O)NCc1ccc(CCl)cc1	116 to 118 °C

query: Look at this molecule and give its reported melting point. COc1cc(Oc2cccc(C)n2)c(C=CC(=O)c2ccc(S(N)(=O)=O)cc2)cc1-c1cccs1
result: 164 to 165 °C

query: Consider next the molecule O=[N+]([O-])c1cccc(-c2nnc(Nc3cccc(SCCCc4ccccc4)c3)s2)c1 in the same way.
result: 169 to 171 °C

query: Consider next the molecule O=C(c1cccc(-c2cc3ccccc3n2S(=O)(=O)c2ccccc2)c1)c1cc2ccccc2n1S(=O)(=O)c1ccccc1 in the same way.
result: 189 to 190 °C
